MEASURED_ON: T1, His-tagged CEACAM1 (human, UniProt P13688 35-428)
T1 construct: 45 kDa SPR analyte; also called CEACAM1-HIS; CEACAM1 analyte
T1 sequence: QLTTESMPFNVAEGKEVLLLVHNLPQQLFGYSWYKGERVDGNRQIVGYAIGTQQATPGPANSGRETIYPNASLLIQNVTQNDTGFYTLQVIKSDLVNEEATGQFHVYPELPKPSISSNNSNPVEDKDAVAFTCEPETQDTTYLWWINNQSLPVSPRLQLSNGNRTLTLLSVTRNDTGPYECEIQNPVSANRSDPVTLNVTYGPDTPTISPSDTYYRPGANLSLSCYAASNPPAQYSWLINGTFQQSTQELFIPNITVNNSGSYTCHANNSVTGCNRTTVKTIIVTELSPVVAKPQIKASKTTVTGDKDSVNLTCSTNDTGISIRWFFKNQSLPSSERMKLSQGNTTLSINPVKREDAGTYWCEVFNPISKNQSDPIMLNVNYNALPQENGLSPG
EXPERIMENT: SPR single-cycle, supernatant IgG captured
Each entry below carries its reported kon.
ENDPOINT_LABEL: kon (M⁻¹ s⁻¹)

* VH1/CP08E01 (antibody, IgG4, V domains shown, IgG4 (S241P), kappa; also called Parent VH/CP08E01) VH: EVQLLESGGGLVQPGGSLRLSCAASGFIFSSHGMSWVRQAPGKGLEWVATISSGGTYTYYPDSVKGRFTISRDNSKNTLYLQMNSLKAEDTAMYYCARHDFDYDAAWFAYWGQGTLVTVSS VL: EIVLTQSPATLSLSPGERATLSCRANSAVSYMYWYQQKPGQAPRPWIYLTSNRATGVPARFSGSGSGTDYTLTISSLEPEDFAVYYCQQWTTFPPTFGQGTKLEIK | 330000
* VH1/CP08F05 (antibody, IgG4, V domains shown, IgG4 (S241P), kappa; also called Parent VH/CP08F05) VH: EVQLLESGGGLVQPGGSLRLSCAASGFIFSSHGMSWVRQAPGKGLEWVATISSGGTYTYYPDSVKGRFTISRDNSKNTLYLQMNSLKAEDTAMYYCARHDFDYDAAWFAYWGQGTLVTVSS VL: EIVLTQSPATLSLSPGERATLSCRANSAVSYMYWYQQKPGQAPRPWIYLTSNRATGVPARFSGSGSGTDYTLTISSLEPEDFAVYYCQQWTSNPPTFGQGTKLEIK | 400000
* CP08C04/Vκ8 S29A (antibody, IgG4, V domains shown, IgG4 (S241P), kappa) VH: EVQLLESGGGLVQPGGSLRLSCAASGFTFSSHGMSWVRQAPGKGLEWVATISSGGTYTYYPDSVKGRFTISRDNSKNTLYLQMNSLKAEDTAMYYCARHDFDYDAAWFAYWGQGTLVTVSS VL: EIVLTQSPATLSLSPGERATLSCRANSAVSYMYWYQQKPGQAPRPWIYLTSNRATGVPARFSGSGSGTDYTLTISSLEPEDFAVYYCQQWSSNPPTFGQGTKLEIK | 220000

All values here come from patent US20250074980A1.
